system: 409B2 hiPSC (iCRISPR Cas9, FRMD7 editing); assay: cell survival relative to solvent control (fold (ratio to mock)); higher = more surviving cells; conditions: 100 nM
Consider the following compounds; for each one, report its cell survival.
One number for each entry.

[
  {
    "compound": "C1CCN2C[C@@H]3C[C@@H](CN4CCCC[C@@H]34)[C@H]2C1 [Sparteine] (in DMSO)",
    "cell survival": 1
  },
  {
    "compound": "CC[C@H](CO)Nc1nc(NCc2ccccc2)c2ncn(C(C)C)c2n1 [Roscovitine (Seliciclib,CYC202)] (in DMSO)",
    "cell survival": 0.963
  },
  {
    "compound": "CO[C@@H]1[C@H](OC(=O)/C=C/C=C/C=C/C=C/C(=O)O)CC[C@]2(CO2)[C@H]1[C@@]1(C)O[C@@H]1CC=C(C)C [Fumagillin] (in DMSO)",
    "cell survival": 0.0522
  }
]

Could you tell me cell survival for each of these compounds? They are listed below.
1. NS(=O)(=O)c1ccccc1 [Benzenesulfonamide] (in DMSO)
2. Nc1ncnc2c1ncn2C1CC(O)C(CO)O1 (stereo not given) [2'-Deoxyadenosine monohydrate] (in DMSO)

Ans:
[1.05, 1]

Reference for the values: the supplement of paper PMC12698765
